test system: NCI-H322M lung; assay: NCI-60 one-dose screen, 48 h; conditions: 10 µM
Compounds without any hit were thinned out: in the full panel of roughly 83,000, 20% have a hit. The source made the active and inactive calls. How the source made its calls: active means growth percent below 10; inactive means the rest.
Please answer using one outcome listed in yes = active, no = inactive

| compound | measured.on | qualitative.label |
| --- | --- | --- |
| COc1ccccc1/C=C/[N+](=O)[O-] | NCI-H322M lung | no |
| ClCc1ccc2ccccc2n1 | NCI-H322M lung | no |
| O=[N+]([O-])/C=C\c1ccc2c(c1)OCO2 | NCI-H322M lung | no |
| C#CC1(O)CCC(C(C)(C)C)CC1 (configuration not stated) | NCI-H322M lung | no |
| O=[N+]([O-])/C=C/c1ccc(Cl)cc1[N+](=O)[O-] | NCI-H322M lung | no |
| NC(=O)c1cc([N+](=O)[O-])c(Cl)c([N+](=O)[O-])c1Cl | NCI-H322M lung | no |

Query string: So what was the verdict on `O=[N+]([O-])c1ccc(N2CCOCC2)c2c1no[n+]2[O-]` in this test?
Result string: no

Query string: So what was the verdict on `COS(=O)(=O)c1ccccc1` in this test?
Result string: no

Query string: So what was the verdict on `Cc1cc(C(C)(C)c2ccc(O)c(C)c2)ccc1O` in this test?
Result string: no

Query string: So what was the verdict on COC12c3c(C)cc(O)c4c(=O)occ(c34)C(=O)C1C13COC(=O)c4c(O)cc(C)c(c41)C(=O)C2C3OC(C)=O (configuration not stated) in this test?
Result string: no

Query string: So what was the verdict on CS(=N)(=O)CCC(N)C(=O)O (configuration not stated) in this test?
Result string: no

Query string: So what was the verdict on `[Cl][Hg][c]1ccc2ccccc2c1` in this test?
Result string: yes

----------
test system: NCI/ADR-RES ovarian; experiment: NCI-60 one-dose screen, 48 h; conditions: 10 µM
About 83,000 compounds went through this panel and 20% of them were active in at least one assay; those are over-represented in the sample as a whole. Activity calls are given as the source filed them. How the source made its calls: active means growth percent below 10; inactive means the rest.
Please answer using one outcome listed in active, inactive

| compound | qualitative.label |
| --- | --- |
| S=C=NCCc1ccccc1 | inactive |
| O=C(CBr)Nc1ccc(Cl)cc1 | inactive |
| [O-][n+]1ccccc1S | inactive |
| N#CCc1ccccc1 | inactive |
| NNc1ccccc1 | inactive |

Query string: So what was the verdict on `[Cl][Sn]([c]1ccccc1)([c]1ccccc1)[c]1ccccc1` in this test?
Result string: active

Query string: So what was the verdict on CCOP(=O)(OCC)C(O)c1ccccc1Cl (stereo not drawn) in this test?
Result string: inactive

Query string: So what was the verdict on `O=[N+]([O-])c1ccc(N(CCO)CCO)c2c1no[n+]2[O-]` in this test?
Result string: inactive

----------
system: U251 CNS; assay: NCI-60 one-dose screen, 48 h; conditions: 10 µM
The panel holds about 83,000 compounds, 20% with a hit somewhere; the sample as a whole holds those more often. The source made the active and inactive calls. Rule for the calls: active = growth percent below 10; inactive = the rest.
Please answer using one outcome listed in active, inactive

| molecule | qualitative.label |
| --- | --- |
| COc1cc([N+](=O)[O-])c2ncccc2c1[N+](=O)[O-] | inactive |
| CN(C)CC1(N)C(=O)NC(=O)NC1=O | inactive |
| CC/C(=C/c1ccc(OC)cc1)[N+](=O)[O-] | inactive |
| COS(=O)(=O)c1ccccc1 | inactive |
| COC(=O)C1C(O)C(C)C(O)C(C)/C=C\C=C(C)C(=O)Nc2c(C)c(OC(C)=O)c3c(c2O)C(=O)C(C)=C2OCOC(=C23)C(C)=CC(C)(O)C(O)C(C)C1O (stereo not given) | inactive |

Query string: So what was the verdict on CS(=N)(=O)CCC(N)C(=O)O (stereo not given) in this test?
Result string: inactive

Query string: So what was the verdict on `S=C=NCCc1ccccc1` in this test?
Result string: inactive

Query string: So what was the verdict on `N#CCc1ccccc1` in this test?
Result string: inactive

Query string: So what was the verdict on `ClCc1ccc2ccccc2n1` in this test?
Result string: inactive

Query string: So what was the verdict on `CC(C)(C)OOC(=O)/C=C\C(=O)OOC(C)(C)C` in this test?
Result string: inactive

Query string: So what was the verdict on `O=[N+]([O-])/C=C\c1ccc2c(c1)OCO2` in this test?
Result string: inactive

Query string: So what was the verdict on `O=C(CCl)Nc1ccc(Cl)cc1` in this test?
Result string: active
